The measurements presented in this section are drawn from patent US11034725B2.

biological target: UniProt Q8NBP7; assay: PCSK9/EGF(A) TR-FRET binding assay; conditions: TR-FRET, Example 7; read-out: PCSK9/EGF(A) IC50
Sequence (Q8NBP7 153-692): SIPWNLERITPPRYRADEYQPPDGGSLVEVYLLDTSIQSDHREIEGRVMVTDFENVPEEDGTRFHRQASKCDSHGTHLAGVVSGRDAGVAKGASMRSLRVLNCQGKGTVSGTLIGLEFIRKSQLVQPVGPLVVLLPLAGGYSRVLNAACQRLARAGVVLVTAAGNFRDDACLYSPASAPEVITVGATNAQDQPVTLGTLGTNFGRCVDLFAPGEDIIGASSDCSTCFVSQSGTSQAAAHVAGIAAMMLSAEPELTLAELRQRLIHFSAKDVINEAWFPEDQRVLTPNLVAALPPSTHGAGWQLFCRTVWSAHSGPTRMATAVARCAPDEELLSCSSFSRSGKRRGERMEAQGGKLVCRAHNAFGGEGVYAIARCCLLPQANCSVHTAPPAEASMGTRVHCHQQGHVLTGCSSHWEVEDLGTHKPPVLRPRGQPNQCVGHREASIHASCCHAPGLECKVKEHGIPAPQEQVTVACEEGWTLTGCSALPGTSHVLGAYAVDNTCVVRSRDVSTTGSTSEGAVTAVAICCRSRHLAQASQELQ
Sequence (Q8NBP7 31-152 partner limits assumed): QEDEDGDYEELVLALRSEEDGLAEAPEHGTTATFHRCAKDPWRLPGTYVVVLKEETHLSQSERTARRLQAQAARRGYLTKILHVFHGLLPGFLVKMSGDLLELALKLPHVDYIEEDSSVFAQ
pIC50: −log10 of the molar value. Bridge positions count the residues as written; N and C are the ends. Square brackets hold non-standard residues; d marks the D form. Peptide text beside a SMILES is read from it. * marks the point of attachment. hArg = N=C(N)NCCCC[C@H](N)C(=O)O; Pentanoyl = CCCCC(=O)*
readout-type: pIC50

1) CCCCC(=O)N[C@@H](Cc1c[nH]c2ccccc12)C(=O)N[C@@H](CC(N)=O)C(=O)N[C@@H](CC(C)C)C(=O)N[C@H](C(=O)N[C@@H](CCCNC(=N)N)C(=O)N[C@H](C(=O)NCC(=O)N[C@H](C(=O)N[C@@H](CC(C)C)C(=O)N[C@@H](CCCNC(=N)N)C(N)=O)[C@@H](C)O)[C@@H](C)CC)C(C)C [Compound 114] (Pentanoyl-WNLVRIGTLR-NH2) ... < 4.30
2) CCCCC(=O)N[C@@H](Cc1c[nH]c2ccccc12)C(=O)N[C@@H](CC(N)=O)C(=O)N[C@@H](CC(C)C)C(=O)N[C@H](C(=O)N[C@@H](CCCNC(=N)N)C(=O)N[C@H](C(=O)NCC(=O)N[C@H](C(=O)N[C@H](C(=O)N[C@@H](CCCNC(=N)N)C(N)=O)[C@@H](C)O)[C@@H](C)O)[C@@H](C)CC)C(C)C [Compound 113] (Pentanoyl-WNLVRIGTTR-NH2) ... < 4.30
3) CC[C@H](C)[C@@H]1NC(=O)[C@H](CCCNC(=N)N)NC(=O)[C@H](C)NC(=O)[C@H](CC(C)C)NC(=O)[C@H](CC(N)=O)NC(=O)[C@H](Cc2c[nH]c3ccccc23)NC(=O)[C@H](CC(C)C)NC(=O)[C@@H](NC(=O)[C@H](Cc2ccccc2)NC(C)=O)CSSC[C@@H](C(=O)N[C@@H](Cc2c[nH]c3ccccc23)C(=O)N[C@@H](Cc2ccccc2)C(N)=O)NC(=O)[C@H](CCC(N)=O)NC(=O)[C@H](CO)NC(=O)CNC1=O [Compound 88] (Ac-FCLWNLARIGSQCWF-NH2; disulfide 2-13) ... 4.75
4) CCCCC(=O)N[C@@H](Cc1c[nH]c2ccccc12)C(=O)N[C@@H](CC(N)=O)C(=O)N[C@@H](CC(C)C)C(=O)N[C@H](C(=O)N[C@@H](CCCNC(=N)N)C(=O)N[C@H](C(=O)NCC(=O)N[C@@H](CC(C)C)C(=O)N[C@@H](CC(C)C)C(=O)N[C@@H](CCCNC(=N)N)C(N)=O)[C@@H](C)CC)C(C)C [Compound 111] (Pentanoyl-WNLVRIGLLR-NH2) ... < 4.30
5) CCCCC(=O)N[C@@H](Cc1c[nH]c2ccccc12)C(=O)N[C@@H](CC(N)=O)C(=O)N[C@@H](CC(C)C)C(=O)N[C@H](C(=O)N[C@@H](CCCNC(=N)N)C(=O)N[C@H](C(=O)NCC(=O)N[C@@H](CC(C)C)C(=O)N[C@H](C(=O)N[C@@H](CCCNC(=N)N)C(N)=O)[C@@H](C)O)[C@@H](C)CC)C(C)C [Compound 112] (Pentanoyl-WNLVRIGLTR-NH2) ... < 4.30
6) CCCCC(=O)N[C@@H](Cc1c[nH]c2ccccc12)C(=O)N[C@@H](CC(N)=O)C(=O)N[C@@H](CC(C)C)C(=O)N[C@H](C(=O)N[C@@H](CCCCNC(=N)N)C(=O)N[C@H](C(=O)NCC(=O)N[C@@H](CC(C)C)C(=O)N[C@H](C(=O)N[C@@H](CCCNC(=N)N)C(N)=O)[C@@H](C)O)[C@@H](C)CC)C(C)C [Compound 118, n-BuC(O)-WNLV(homoR)IGLTR-NH2] (Pentanoyl-WNLV[hArg]IGLTR-NH2) ... < 4.30
